The measurements presented in this section are drawn from paper PMC3517355.

Molecular target: T1, CCHF Altamura Gn 611 peptide (Crimean-Congo hemorrhagic fever virus, UniProt Q8JSZ3)
T1 chain: TQEGRGHVKLSRGSE
Assay: ELASA; […] (0.5 M NaCl, 10 mM Tris-HCl, 1 mM MgCl2, pH 7.5-7.6), 1 h, RT (~25 C); […]
Settings: label: 5'-biotin
Endpoint Name: binding signal (A405)

- Binder: "Gn6-17F (ssDNA) DNA: ATACGGGAGCCAACACCAAACTAGACAACCGCCCTTATACACACTGTACCAGTAGAGCAGGTGTGACGGAT"
  Units Label: "A405"
  Reported Measurement: 1.82
- Binder: "Gn6-16cR (ssDNA) DNA: ATCCGTCACACCTGCTCTGTCGGGATGCGCCGGGCCGCCATGATTAGTGTGCTCTGGTGTTGGCTCCCGTAT"
  Units Label: "A405"
  Reported Measurement: 1.67
- Binder: "Gn6-7bR (ssDNA) DNA: ATCCGTCACACCTGCTCTCACATACTGGTCAGTCTCTATCGAGGCGGGCATTGGTGTTGGCTCCCGTAT"
  Units Label: "A405"
  Reported Measurement: 1.69
- Binder: "Gn6-15R (ssDNA) DNA: ATCCGTCACACCTGCTCTGGGCCAGGTAAGAAGATGCGAGCTGTGTAATACATGTGGTGTTGGCTCCCGTAT"
  Units Label: "A405"
  Reported Measurement: 1.63
- Binder: "Gn6-6R (ssDNA) DNA: ATCCGTCACACCTGCTCTGCATATAAATTTTTAACAAGGGACTGGTAACTATCCTGGTGTTGGCTCCCGTAT"
  Units Label: "A405"
  Reported Measurement: 1.64
- Binder: "Gn6-25R (ssDNA) DNA: ATCCGTCACACCTGCTCTACAGTTAGAGCTTGCCGTATGCCTTTGTTAACATAATGGTGTTGGCTCCCGTAT"
  Units Label: "A405"
  Reported Measurement: 1.94
- Binder: "Gn6-5F (ssDNA) DNA: ATACGGGAGCCAACACCACGCCTTGTCTATTCTCTTAGTTTCCTGCTACTCCACAGAGCAGGTGTGACGGAT"
  Units Label: "A405"
  Reported Measurement: 1.75
- Binder: "Gn6-18F (ssDNA) DNA: ATACGGGAGCCAACACCATACGCACCCGCATTCGTTAGTGTGTACAGTATGTCCAGAGCAGGTGTGACGGAT"
  Units Label: "A405"
  Reported Measurement: 1.86
- Binder: "Gn6-30F (ssDNA) DNA: ATACGGGAGCCAACACCATCCCACCGAATATCCGCTTTCCTCGTCCTCCTTTCAGAGCAGGTGTGACGGAT"
  Units Label: "A405"
  Reported Measurement: 1.75
- Binder: "Gn6-16cF (ssDNA) DNA: ATACGGGAGCCAACACCAGAGCACACTAATCATGGCGGCCCGGCGCATCCCGACAGAGCAGGTGTGACGGAT"
  Units Label: "A405"
  Reported Measurement: 1.9
